Task for the reader: assign each of the following compounds its reported pIC50.
- Target Under Test: human plasma kallikrein (Homo sapiens (Human))
- Sequence (P03952 391-638): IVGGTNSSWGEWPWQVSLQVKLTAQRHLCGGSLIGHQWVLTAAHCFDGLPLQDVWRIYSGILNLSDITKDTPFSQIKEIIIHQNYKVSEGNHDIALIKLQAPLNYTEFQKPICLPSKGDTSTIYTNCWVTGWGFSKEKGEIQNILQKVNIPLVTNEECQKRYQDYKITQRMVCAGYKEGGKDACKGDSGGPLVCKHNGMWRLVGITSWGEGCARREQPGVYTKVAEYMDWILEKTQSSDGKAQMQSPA
- Sequence (P03952 20-390 partner): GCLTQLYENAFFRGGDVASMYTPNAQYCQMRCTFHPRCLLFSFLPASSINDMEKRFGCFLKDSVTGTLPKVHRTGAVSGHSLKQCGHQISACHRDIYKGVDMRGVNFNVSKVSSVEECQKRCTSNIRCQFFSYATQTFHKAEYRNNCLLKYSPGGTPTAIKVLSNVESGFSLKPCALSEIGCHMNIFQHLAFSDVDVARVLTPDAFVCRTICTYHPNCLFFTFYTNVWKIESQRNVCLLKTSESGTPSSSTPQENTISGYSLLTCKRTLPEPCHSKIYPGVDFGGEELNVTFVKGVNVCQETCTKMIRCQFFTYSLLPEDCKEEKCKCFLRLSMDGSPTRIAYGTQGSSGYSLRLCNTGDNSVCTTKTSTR
- Assay: In vitro enzyme inhibition of human plasma kallikrein (PFR-AMC cleavage)
- Assay Conditions: Pro-Phe-Arg-AMC substrate, 37° C., read-out: hPK IC50
pIC50: −log10 of the molar value.

Need pIC50 of "Cc1ccn2c(C)nc(CNC(=O)c3ccnc(Cc4ccc5ncc(Cl)cc5c4)c3)c2c1" , thanks.
6.00 to 7.00

Need pIC50 of "Cc1cnc2c(S(N)(=O)=O)cc(Cc3cc(C(=O)NCc4cnc5[nH]cc(Cl)c5c4)ccn3)cc2c1" , thanks.
> 7.00

pIC50 for "Cc1cc(N)nc(C)c1CNC(=O)c1ccnc(Cc2cc(CN)c3ncc(Cl)cc3c2)c1" ?
> 7.00

What value of measured pIC50 is listed for "CC(C)(O)c1cc(Cc2cc(C(=O)NCc3ccc4c(N)nccc4c3)ccn2)cc2cc(Cl)cnc12" ?
> 7.00

Which pIC50 value belongs to "Cc1nc2c(c(C)c1CNC(=O)c1ccnc(Cc3ccc4ncc(Cl)cc4c3)c1)CCN2" ?
> 7.00

Which measured pIC50 value corresponds to "Cc1cc(CN)nc(C)c1CNC(=O)c1ccnc(Cc2ccc3ncc(Cl)cc3c2)c1" ?
> 7.00

Would you mind telling me what pIC50 value was observed for "CCc1cnc2ccc(Cc3cc(C(=O)NCc4ccc5c(N)nccc5c4)ccn3)cc2c1" ?
> 7.00

Please report the recorded pIC50 for "Nc1nccc2cc(CNC(=O)c3ccnc(Cc4ccc5ncc(C(F)(F)F)cc5c4)c3)ccc12" .
> 7.00

# lookup: pIC50 of "Cc1cc2cncn2cc1CNC(=O)c1ccnc(Cc2ccc3ncc(Cl)cc3c2)c1"
< 5.00

What does the record list as pIC50 for "Cc1nc2c(cc1CNC(=O)c1ccnc(Cc3ccc4ncc(Cl)cc4c3)c1)CCN2" ?
6.00 to 7.00

// returns reported pIC50 for input "NCc1ccc(CNC(=O)c2ccnc(Cc3ccc4ncc(Cl)cc4c3)c2)cc1"
6.00 to 7.00

Requested field: pIC50. Item: "Cc1cc(N)nc(C)c1CNC(=O)c1ccnc(Cc2ccc3nc(C)c(Cl)cc3c2)c1"
> 7.00

Any idea what pIC50 was measured for "CC(C)(O)c1cc(Cc2cc(C(=O)NCc3cnc4[nH]cc(Cl)c4c3)ccn2)cc2cc(Cl)cnc12" ?
> 7.00

Given the compound "O=C(NCc1cnc2ncc(Cl)cn12)c1ccnc(Cc2ccc3ncc(Cl)cc3c2)c1" , what is its reported pIC50?
< 5.00

What value of measured pIC50 is listed for "O=C(NCc1n[nH]c2ccc(Cl)cc12)c1ccnc(Cc2ccc3ncc(C4CC4)cc3c2)c1" ?
> 7.00

Entry "Cc1nc(N)ccc1CNC(=O)c1ccnc(Cc2cc(C(C)(C)O)c3ncc(Cl)cc3c2)c1" : reported pIC50 = ?
> 7.00

For the compound "Cc1cc(N)nc(C)c1CNC(=O)c1ccnc(Cc2cnc3cc(F)c(Cl)cc3c2)c1" , what pIC50 is on record?
> 7.00

Entry "O=C(NCc1cc2c(Cl)c[nH]c2cc1F)c1ccnc(Cc2ccc3ncc(N4CCOCC4)cc3c2)c1" : reported pIC50 = ?
5.00 to 6.00

// returns reported pIC50 for input "Cc1cnc2c(C(C)(C)O)cc(Cc3cc(C(=O)NCc4cnc5[nH]cc(Cl)c5c4)ccn3)cc2c1"
> 7.00

Requested read-out: pIC50. Entry: "O=C(NCc1n[nH]c2ccc(Cl)cc12)c1ccnc(Cc2ccc3ncc(N4CCNCC4)cc3c2)c1"
5.00 to 6.00

Reference source: patent US10023557B2
